# test-system: JAK1 (Homo sapiens (Human), UniProt P23458)
# Sequence (P23458 whole entry): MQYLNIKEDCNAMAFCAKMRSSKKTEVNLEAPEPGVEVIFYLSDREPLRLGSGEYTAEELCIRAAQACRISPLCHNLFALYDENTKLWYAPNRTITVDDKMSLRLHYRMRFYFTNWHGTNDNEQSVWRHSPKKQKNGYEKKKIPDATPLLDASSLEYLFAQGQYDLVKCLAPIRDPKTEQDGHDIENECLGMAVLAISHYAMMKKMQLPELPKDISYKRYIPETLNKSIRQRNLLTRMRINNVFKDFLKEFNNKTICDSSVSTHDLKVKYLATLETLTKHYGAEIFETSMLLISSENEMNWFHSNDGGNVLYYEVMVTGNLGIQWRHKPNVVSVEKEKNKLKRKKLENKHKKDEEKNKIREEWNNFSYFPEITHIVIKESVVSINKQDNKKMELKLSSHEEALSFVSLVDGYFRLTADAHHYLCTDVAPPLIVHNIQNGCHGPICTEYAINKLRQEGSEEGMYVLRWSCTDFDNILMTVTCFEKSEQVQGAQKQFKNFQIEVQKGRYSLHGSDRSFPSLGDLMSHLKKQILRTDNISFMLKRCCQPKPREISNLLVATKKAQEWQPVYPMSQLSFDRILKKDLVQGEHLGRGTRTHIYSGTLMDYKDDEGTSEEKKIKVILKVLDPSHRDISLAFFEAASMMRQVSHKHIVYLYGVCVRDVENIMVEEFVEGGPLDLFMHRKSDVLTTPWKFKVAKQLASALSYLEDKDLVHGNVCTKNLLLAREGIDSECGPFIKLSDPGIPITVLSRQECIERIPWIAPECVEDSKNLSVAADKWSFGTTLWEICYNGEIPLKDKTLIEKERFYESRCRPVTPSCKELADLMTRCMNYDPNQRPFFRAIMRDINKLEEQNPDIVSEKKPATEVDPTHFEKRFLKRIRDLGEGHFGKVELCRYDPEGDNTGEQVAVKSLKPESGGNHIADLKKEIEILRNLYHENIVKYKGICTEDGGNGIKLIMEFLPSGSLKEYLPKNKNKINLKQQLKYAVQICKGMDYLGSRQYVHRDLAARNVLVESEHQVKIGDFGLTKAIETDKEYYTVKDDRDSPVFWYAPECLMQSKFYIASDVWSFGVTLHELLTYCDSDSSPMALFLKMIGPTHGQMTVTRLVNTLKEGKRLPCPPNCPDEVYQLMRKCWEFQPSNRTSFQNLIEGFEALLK
# test-name: Analysis of JAK1 activity inhibition ability (ADP-Glo Kinase Assay)
# Type: biochemical
# particulars: JAK1 enzyme, ADP-Glo luminescence, ATP 250 uM, IRS-itide substrate, 30° C. 40 minutes; read-out: IC50
# Method: Test Example 1: Analysis of JAK1 Activity Inhibition Ability of Compound of Formula 1 (ADP-Glo™ Kinase Assay) A JAK inhibition ability of a compound according to the present invention was identified as follows. A control material and a test material were prepared for each concentration, in such a way that they were diluted by means of DMSO. […]
pIC50: −log10 of the molar value.
Recorded pIC50 by entry

Previously resolved entries follow.
| molecule | pIC50 |
| --- | --- |
| CCS(=O)(=O)Nc1ccc(-c2cc(NC(=O)C3CC3)nc3[nH]ccc23)cc1C | > 7.70 |
| O=C(Nc1cc(C2=CCN(C(=O)c3ccoc3)CC2)c2cc[nH]c2n1)C1CC1 | 6.70 to 7.70 |
| CC1CN(C(=O)c2cc3ccccc3o2)CC=C1c1cc(NC(=O)C2CC2)nc2[nH]ccc12 (centres unmarked) | 6.70 to 7.70 |
| N#CCN1CCC(n2cc(-c3cc(NC(=O)C4CC4)nc4[nH]ccc34)cn2)CC1 | 6.70 to 7.70 |
| Cc1cc(C(=O)N2CCOCC2)ccc1-c1cc(NC(=O)C2CC2)nc2[nH]ccc12 | 6.70 to 7.70 |

Report pIC50 under test system JAK1 (Homo sapiens (Human), UniProt P23458) for `N#CCCN1CC=C(c2cc(NC(=O)C3CC3)nc3[nH]ccc23)CC1` .
6.70 to 7.70

Report pIC50 under test system JAK1 (Homo sapiens (Human), UniProt P23458) for CCC1CN(C(=O)OC(C)(C)C)CC=C1c1cc(NC(=O)C2CC2)nc2[nH]ccc12 (centres unmarked) .
< 6.70

* * *

Recorded pIC50 by entry
# test-system: JAK1 (Homo sapiens (Human))
# test-name: Analysis of JAK1 activity inhibition ability (ADP-Glo Kinase Assay)
# Assay type: biochemical
# particulars: JAK1 enzyme, ADP-Glo luminescence, ATP 250 uM, IRS-itide substrate, 30° C. 40 minutes; read-out: IC50
pIC50: −log10 of the molar value.

| substance-smiles | test-system | pIC50 |
| --- | --- | --- |
| O=C(Nc1nc(-c2ccc(NS(=O)(=O)C3CCS(=O)(=O)CC3)cc2)c2cc[nH]c2n1)C1CC1 | JAK1 (Homo sapiens (Human)) | 6.70 to 7.70 |

Indicate the recorded pIC50 value for this compound: `O=C(Nc1nc(-c2ccc(NCc3cccc(F)c3)cc2)c2cc[nH]c2n1)C1CC1`
> 7.70

Indicate the recorded pIC50 value for this compound: `N#CC1CN(S(=O)(=O)Nc2ccc(-c3cc(NC(=O)C4CC4)nc4[nH]ccc34)cc2)C1`
6.70 to 7.70

Indicate the recorded pIC50 value for this compound: `Cc1cc(NS(=O)(=O)N(C)CC(F)(F)F)ccc1-c1cc(NC(=O)C2CC2)nc2[nH]ccc12`
> 7.70

* * *

# test-system: JAK1 (Homo sapiens (Human))
# test-name: Analysis of JAK1 activity inhibition ability (ADP-Glo Kinase Assay)
# Format: biochemical
# particulars: JAK1 enzyme, ADP-Glo luminescence, ATP 250 uM, IRS-itide substrate, 30° C. 40 minutes; read-out: IC50
pIC50: −log10 of the molar value.
experimental-endpoint: pIC50

| molecule | experimental-endpoint | measurement |
| --- | --- | --- |
| CC1=C(c2cc(NC(=O)C3CC3)nc3[nH]ccc23)CCN(C(=O)CC#N)C1 [Example 296] | pIC50 | 6.70 to 7.70 |

Indicate the recorded pIC50 value for this molecule: O=C1CCN(Cc2ccc(-c3cc(NC(=O)C4CC4)nc4[nH]ccc34)cc2)CC1 [Example 585]
> 7.70

Indicate the recorded pIC50 value for this molecule: CCS(=O)(=O)Oc1ccc(-c2cc(NC(=O)C3CC3)nc3[nH]ccc23)cc1 [Example 629]
6.70 to 7.70

Indicate the recorded pIC50 value for this molecule: COCCN(C)S(=O)(=O)Nc1ccc(-c2cc(NC(=O)C3CC3)nc3[nH]ccc23)cc1 [Example 223]
6.70 to 7.70

* * *

# test-system: JAK1 (Homo sapiens (Human), UniProt P23458)
# test-name: Analysis of JAK1 activity inhibition ability (ADP-Glo Kinase Assay)
# Assay type: biochemical
# particulars: JAK1 enzyme, ADP-Glo luminescence, ATP 250 uM, IRS-itide substrate, 30° C. 40 minutes; read-out: IC50
# Method: Test Example 1: Analysis of JAK1 Activity Inhibition Ability of Compound of Formula 1 (ADP-Glo™ Kinase Assay) A JAK inhibition ability of a compound according to the present invention was identified as follows. A control material and a test material were prepared for each concentration, in such a way that they were diluted by means of DMSO. […]
pIC50: −log10 of the molar value.
experimental-endpoint: pIC50

Previously resolved entries follow.
| molecule | pIC50 |
| --- | --- |
| N#CCCC(=O)N1C=C(c2cc(NC(=O)C3CC3)nc3[nH]ccc23)CCC1 | < 6.70 |
| CC1CN(C(=O)c2ccc(-c3ccc(F)cc3F)[nH]c2=O)CC=C1c1cc(NC(=O)C2CC2)nc2[nH]ccc12 (stereo not drawn) | < 6.70 |

Report pIC50 under test system JAK1 (Homo sapiens (Human), UniProt P23458) for `O=C(Nc1cc(C2=CCN(S(=O)(=O)c3ccc(F)c(F)c3)CC2)c2cc[nH]c2n1)C1CC1` .
6.70 to 7.70

Report pIC50 under test system JAK1 (Homo sapiens (Human), UniProt P23458) for O=C(Nc1cc(C2=CCN(CC3CC3(F)F)CC2)c2cc[nH]c2n1)C1CC1 (stereo not drawn) .
6.70 to 7.70

Report pIC50 under test system JAK1 (Homo sapiens (Human), UniProt P23458) for CC1CN(C(=O)CC#N)CC=C1c1cc(NC(=O)C2CC2)nc2[nH]ccc12 (stereo in doubt) [Example 305] .
6.70 to 7.70

Report pIC50 under test system JAK1 (Homo sapiens (Human), UniProt P23458) for `CCCS(=O)(=O)N1CC=C(c2cc(NC(=O)C3CC3)nc3[nH]ccc23)C1` .
< 6.70

* * *

# test-system: JAK1 (Homo sapiens (Human))
# test-name: Analysis of JAK1 activity inhibition ability (ADP-Glo Kinase Assay)
# Assay type: biochemical
# particulars: JAK1 enzyme, ADP-Glo luminescence, ATP 250 uM, IRS-itide substrate, 30° C. 40 minutes; read-out: IC50
pIC50: −log10 of the molar value.
experimental-endpoint: pIC50

Previously resolved entries follow.
| compound | pIC50 |
| --- | --- |
| CC(C)(C)C1C=C(c2cc(NC(=O)C3CC3)nc3[nH]ccc23)CCN1C(=O)CC#N (stereo not drawn) [Example 412] | > 7.70 |
| O=C(Nc1cc(-c2ccc(NS(=O)(=O)C3CC3)c(F)c2)c2cc[nH]c2n1)C1CC1 [Example 69] | > 7.70 |
| O=C(Nc1cc(-c2ccc(NS(=O)(=O)C3CCCCC3)c(F)c2)c2cc[nH]c2n1)C1CC1 [Example 68] | > 7.70 |
| Cc1c(NC(=O)C2CC2)nc2[nH]ccc2c1C1=CCN(C(=O)OC(C)(C)C)CC1 [Example 457] | < 6.70 |
| CCCCS(=O)(=O)Nc1ccc(-c2cc(NC(=O)C3CC3)nc3[nH]ccc23)cc1 [Example 6] | > 7.70 |
| CCS(=O)(=O)Nc1ccc(-c2cc(NC(=O)C3CC3)nc3[nH]ccc23)cc1C(F)(F)F [Example 98] | 6.70 to 7.70 |
| CC1CN(C(=O)c2ccc(Cl)c(Cl)c2)CC=C1c1cc(NC(=O)C2CC2)nc2[nH]ccc12 (stereo not drawn) [Example 353] | 6.70 to 7.70 |
| O=C(Nc1cc(-c2ccc(CNC3CCS(=O)(=O)C3)cc2)c2cc[nH]c2n1)C1CC1 (stereo not drawn) [Example 595] | 6.70 to 7.70 |

// moving on: another record for pIC50
Indicate the recorded pIC50 value for this compound: O=C(Nc1cc(-c2ccc(OS(=O)(=O)CC3CCCCC3)cc2)c2cc[nH]c2n1)C1CC1 [Example 637]
< 6.70

* * *

# test-system: JAK1 (Homo sapiens (Human), UniProt P23458)
# test-name: Analysis of JAK1 activity inhibition ability (ADP-Glo Kinase Assay)
# Format: biochemical
# particulars: JAK1 enzyme, ADP-Glo luminescence, ATP 250 uM, IRS-itide substrate, 30° C. 40 minutes; read-out: IC50
experimental-endpoint: IC50

Previously resolved entries follow.
| compound | IC50 |
| --- | --- |
| O=C(Nc1cc(C2=CC3CCC(C2)N3C(=O)CC(F)(F)F)c2cc[nH]c2n1)C1CC1 (centres unmarked) [Example 261] | 20 to 200 nM |
| COc1ccc(C(=O)N2CC=C(c3cc(NC(=O)C4CC4)nc4[nH]ccc34)C(C)C2)c(OC)c1 (centres unmarked) [Example 356] | > 200 nM |
| N#Cc1ccc(S(=O)(=O)Nc2ccc(-c3nc(NC(=O)C4CC4)nc4[nH]ccc34)cc2)cn1 [Example 197] | > 200 nM |
| Cc1cc(NS(=O)(=O)CC2CC2)ccc1-c1cc(NC(=O)C2CC2)nc2[nH]ccc12 [Example 92] | 20 to 200 nM |
| CC(C)(C)OC(=O)N[C@H]1CCN(c2cc(NC(=O)C3CC3)nc3[nH]ccc23)C1 [Example 697] | > 200 nM |

Indicate the recorded IC50 value for this compound: CC(C)(C)OC(=O)N1CCC(c2cc(NC(=O)C3CC3)nc3[nH]ccc23)C(F)C1 (centres unmarked) [Example 656]
> 200 nM

Indicate the recorded IC50 value for this compound: O=C(Nc1cc(-c2ccc(NCc3ccccc3)cc2)c2cc[nH]c2n1)C1CC1 [Example 472]
> 200 nM
